Every entry's value here was drawn from patent US20220402948A1.

- ASSAYED_SYSTEM: Ba/F3 cells with EGFR Δ19del/T790M/C797S mutation gene stably overexpressed (Homo sapiens, UniProt P00533, T790M/C797S, cells depend on it, form not given)
- Sequence (P00533 with tags, fused parts or gaps DEL746-750/T790M/C797S, form open): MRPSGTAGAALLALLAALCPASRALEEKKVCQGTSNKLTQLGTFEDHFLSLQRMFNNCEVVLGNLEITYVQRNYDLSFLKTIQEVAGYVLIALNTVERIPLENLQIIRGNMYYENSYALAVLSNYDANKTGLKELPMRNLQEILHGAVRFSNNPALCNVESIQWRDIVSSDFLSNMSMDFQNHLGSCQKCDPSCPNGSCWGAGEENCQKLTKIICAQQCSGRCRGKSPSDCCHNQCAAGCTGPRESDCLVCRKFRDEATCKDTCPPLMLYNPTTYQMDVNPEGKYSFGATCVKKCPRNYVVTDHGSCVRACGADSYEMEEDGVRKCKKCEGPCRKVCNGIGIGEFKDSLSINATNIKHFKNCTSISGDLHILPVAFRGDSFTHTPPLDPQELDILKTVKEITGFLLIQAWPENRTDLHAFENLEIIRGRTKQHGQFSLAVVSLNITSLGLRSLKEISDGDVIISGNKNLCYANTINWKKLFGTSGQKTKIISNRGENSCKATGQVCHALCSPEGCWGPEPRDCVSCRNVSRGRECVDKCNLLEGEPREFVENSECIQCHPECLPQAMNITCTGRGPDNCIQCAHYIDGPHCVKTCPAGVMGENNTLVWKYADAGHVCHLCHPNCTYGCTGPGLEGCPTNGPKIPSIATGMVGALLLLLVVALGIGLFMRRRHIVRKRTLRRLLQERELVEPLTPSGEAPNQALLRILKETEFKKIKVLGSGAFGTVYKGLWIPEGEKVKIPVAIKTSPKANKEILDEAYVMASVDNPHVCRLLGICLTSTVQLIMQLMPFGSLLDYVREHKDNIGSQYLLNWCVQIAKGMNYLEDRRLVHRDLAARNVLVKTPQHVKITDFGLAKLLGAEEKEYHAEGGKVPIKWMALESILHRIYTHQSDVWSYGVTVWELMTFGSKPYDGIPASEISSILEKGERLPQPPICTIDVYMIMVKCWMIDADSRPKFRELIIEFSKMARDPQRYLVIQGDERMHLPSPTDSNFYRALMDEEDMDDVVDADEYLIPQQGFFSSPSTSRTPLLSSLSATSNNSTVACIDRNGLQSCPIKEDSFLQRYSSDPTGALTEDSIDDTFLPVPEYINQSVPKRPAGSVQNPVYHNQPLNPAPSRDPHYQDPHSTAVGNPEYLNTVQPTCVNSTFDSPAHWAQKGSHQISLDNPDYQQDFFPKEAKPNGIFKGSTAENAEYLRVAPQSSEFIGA
- EXPERIMENT_DESCRIPTION: Ba/F3-Δ19del/T790M/C797S cell proliferation assay (CellTiter Glo, 72 hours)
- Format: cell-based
- SETTINGS: Table 2, read-out: EGFR Δ19del/T790M/C797S IC50
Lab note: anything with GI50 below 20 nM is marked class 1; values at 20 nM or higher are marked class 0.

Worked set:
{"COMPOUND": "COc1cc(N2CCN(C)CC2)c(C)cc1Nc1ncc(Br)c(Nc2ccc(-c3nccs3)cc2P(C)(C)=O)n1", "CLASS": "class 1"}
{"COMPOUND": "CCc1cc(Nc2ncc(Br)c(Nc3ccc(-c4ncccn4)cc3P(C)(C)=O)n2)c(OC)cc1N1CCC(N2CCN(C)CC2)CC1", "CLASS": "class 1"}

Ask: State whether 20 nM exceeds GI50 recorded for `CCc1cc(Nc2ncc(Br)c(Nc3ccc(-c4cnc(N(C)C)nc4)cc3P(C)(C)=O)n2)c(OC)cc1N1CCC(N2CCN(C)CC2)CC1` .
Result: class 1

Ask: State whether 20 nM exceeds GI50 recorded for `CCc1cc(Nc2ncc(Br)c(Nc3ccc(-c4cnc(C)cn4)cc3P(C)(C)=O)n2)c(OC)cc1N1CCC(N2CCN(C)CC2)CC1` .
Result: class 1

Ask: State whether 20 nM exceeds GI50 recorded for `CCc1cc(Nc2ncc(Br)c(Nc3ccc(-c4ccc(C5CC5)nn4)cc3P(C)(C)=O)n2)c(OC)cc1N1CCC(N2CCN(C)CC2)CC1` .
Result: class 0

Ask: State whether 20 nM exceeds GI50 recorded for `CCc1cc(Nc2ncc(Cl)c(Nc3ccc(-c4cnccn4)cc3P(C)(C)=O)n2)c(OC)cc1N1CCC(N2CCN(C)CC2)CC1` .
Result: class 1

Ask: State whether 20 nM exceeds GI50 recorded for `COc1cc(Nc2ncc(Br)c(Nc3ccc(-c4cnccn4)cc3P(C)(C)=O)n2)c(C)cc1N1CCOCC1` .
Result: class 1

Ask: State whether 20 nM exceeds GI50 recorded for `CCc1cc(Nc2ncc(Cl)c(Nc3ccc(-c4nnc(C)o4)cc3P(C)(C)=O)n2)c(OC)cc1N1CCC(N2CCN(C)CC2)CC1` .
Result: class 0

Ask: State whether 20 nM exceeds GI50 recorded for `CCc1cc(Nc2ncc(Br)c(Nc3ccc(-c4ncc(C)cn4)cc3P(C)(C)=O)n2)c(OC)cc1N1CCC(N2CCN(C)CC2)CC1` .
Result: class 1

Ask: State whether 20 nM exceeds GI50 recorded for `CCc1cc(Nc2ncc(Br)c(Nc3ccc(-c4cnc(N(C)C)cn4)cc3P(C)(C)=O)n2)c(OC)cc1N1CCC(N2CCN(C)CC2)CC1` .
Result: class 1

Ask: State whether 20 nM exceeds GI50 recorded for `CCc1cc(Nc2ncc(Br)c(Nc3ccc(-c4cnn(C)c4)cc3P(C)(C)=O)n2)c(OC)cc1N1CCC(N2CCN(C)CC2)CC1` .
Result: class 1

Ask: State whether 20 nM exceeds GI50 recorded for `CCc1cc(Nc2ncc(Br)c(Nc3ccc(-c4cnn(CCN5CCOCC5)c4)cc3P(C)(C)=O)n2)c(OC)cc1N1CCC(N2CCN(C)CC2)CC1` .
Result: class 0

Ask: State whether 20 nM exceeds GI50 recorded for `CCc1cc(Nc2ncc(Br)c(Nc3ccc(-c4ncco4)cc3P(C)(C)=O)n2)c(OC)cc1N1CCC(N2CCN(C)CC2)CC1` .
Result: class 1
